Target: IKZF3 (Aiolos) (Homo sapiens, UniProt Q9UKT9)
Construct: Leu-Asp junction (codons ctcgac before the linker); mScarlet (behind P2A) (C, cleaved yes); expressed in transfected cells
Sequence (Q96SW2 whole entry partner): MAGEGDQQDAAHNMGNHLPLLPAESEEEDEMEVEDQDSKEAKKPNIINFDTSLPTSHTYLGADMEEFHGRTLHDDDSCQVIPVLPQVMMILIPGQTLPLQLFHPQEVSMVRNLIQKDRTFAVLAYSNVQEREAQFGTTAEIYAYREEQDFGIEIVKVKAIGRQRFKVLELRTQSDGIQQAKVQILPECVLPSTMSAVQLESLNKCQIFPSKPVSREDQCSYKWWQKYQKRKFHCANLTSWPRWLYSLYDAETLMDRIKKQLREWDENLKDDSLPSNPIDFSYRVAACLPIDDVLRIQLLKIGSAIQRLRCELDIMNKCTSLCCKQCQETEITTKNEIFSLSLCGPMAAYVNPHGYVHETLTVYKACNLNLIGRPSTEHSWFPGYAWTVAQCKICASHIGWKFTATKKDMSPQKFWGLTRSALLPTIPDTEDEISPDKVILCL
Sequence (Q16531 whole entry partner): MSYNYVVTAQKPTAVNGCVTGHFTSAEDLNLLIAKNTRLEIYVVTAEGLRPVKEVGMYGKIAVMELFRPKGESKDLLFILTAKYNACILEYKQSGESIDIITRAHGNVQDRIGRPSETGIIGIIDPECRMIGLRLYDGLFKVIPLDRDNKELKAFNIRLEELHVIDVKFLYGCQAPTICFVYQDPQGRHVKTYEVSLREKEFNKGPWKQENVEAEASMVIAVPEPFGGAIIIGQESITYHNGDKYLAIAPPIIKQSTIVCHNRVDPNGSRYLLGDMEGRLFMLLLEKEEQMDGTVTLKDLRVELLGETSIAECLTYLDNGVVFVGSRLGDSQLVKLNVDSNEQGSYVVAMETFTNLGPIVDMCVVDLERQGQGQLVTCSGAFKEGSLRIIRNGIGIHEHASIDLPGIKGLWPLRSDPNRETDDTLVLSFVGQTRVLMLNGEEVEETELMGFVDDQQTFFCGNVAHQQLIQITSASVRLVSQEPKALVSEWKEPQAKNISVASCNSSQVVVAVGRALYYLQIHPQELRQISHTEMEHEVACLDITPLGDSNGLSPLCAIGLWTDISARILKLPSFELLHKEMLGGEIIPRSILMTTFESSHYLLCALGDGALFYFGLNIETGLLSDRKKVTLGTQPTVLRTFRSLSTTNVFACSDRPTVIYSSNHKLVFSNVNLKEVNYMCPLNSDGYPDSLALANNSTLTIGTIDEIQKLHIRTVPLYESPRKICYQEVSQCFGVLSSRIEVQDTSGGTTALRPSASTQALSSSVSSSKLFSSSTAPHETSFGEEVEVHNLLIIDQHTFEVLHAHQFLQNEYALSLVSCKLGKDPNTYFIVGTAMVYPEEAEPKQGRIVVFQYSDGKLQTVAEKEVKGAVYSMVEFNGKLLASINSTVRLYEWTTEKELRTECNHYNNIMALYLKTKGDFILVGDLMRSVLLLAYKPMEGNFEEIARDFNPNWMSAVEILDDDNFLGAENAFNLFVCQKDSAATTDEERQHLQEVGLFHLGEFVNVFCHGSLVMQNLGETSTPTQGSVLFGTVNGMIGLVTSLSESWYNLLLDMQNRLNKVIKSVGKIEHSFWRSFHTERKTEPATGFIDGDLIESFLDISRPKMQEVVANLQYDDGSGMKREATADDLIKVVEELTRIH
Sequence (Q9UKT9 whole entry): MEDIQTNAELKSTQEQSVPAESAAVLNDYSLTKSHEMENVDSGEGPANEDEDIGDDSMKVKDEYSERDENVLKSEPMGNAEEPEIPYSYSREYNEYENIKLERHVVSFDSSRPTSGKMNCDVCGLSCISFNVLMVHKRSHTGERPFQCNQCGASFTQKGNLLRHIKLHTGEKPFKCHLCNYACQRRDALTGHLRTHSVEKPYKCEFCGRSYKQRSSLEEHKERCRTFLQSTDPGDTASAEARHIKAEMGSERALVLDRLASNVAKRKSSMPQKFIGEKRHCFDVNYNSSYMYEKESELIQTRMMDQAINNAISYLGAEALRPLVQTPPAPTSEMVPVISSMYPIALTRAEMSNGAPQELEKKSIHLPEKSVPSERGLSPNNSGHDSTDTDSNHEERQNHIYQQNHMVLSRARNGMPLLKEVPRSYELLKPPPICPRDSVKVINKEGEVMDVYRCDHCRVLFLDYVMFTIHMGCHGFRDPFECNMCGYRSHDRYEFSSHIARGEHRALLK
Test: IKZF3 reporter degradation assay (HEK 293T IKZF3-mNeonGreen reporter cell line)
Assay type: cell-based
Details: HEK 293T IKZF3-mNeonGreen reporter, 24 hours incubation
reported_metric: DC50 (nM)

(P) O=C1CCC(N2Cc3cc(O[C@H]4CCCC[C@@H]4N4CC(c5ccc(C(F)(F)F)cn5)C4)ccc3C2=O)C(=O)N1 (single isomer, unassigned) [Compound 131-B]
(Q) CC1(C(=O)N2CCC(C3CN([C@H]4CCCC[C@@H]4Oc4ccc5c(c4)CN(C4CCC(=O)NC4=O)C5=O)C3)CC2)CC1 (stereo partly drawn)
Which of these two has the smaller recorded DC50: P or Q ? Mark your answer with the label of the selected entry. P
(P: 41.4 nM, Q: 61 nM)

Taken from patent US20250100996A1.
